Assay: Pharmacokinetics of clobazam in plasma (LC-MS/MS)
Format: in vivo
Details: human, po, 20 mg, clobazam 20 mg oral, subgroup (n = 8) with peak plasma level below 180 minutes and at least 200 µg/ml, mean (SD)
Recorded Endpoint: half-life (h)
All answers are understood in h, so give the number only.

INPUT: Could you please provide reported half-life for "CN1C(=O)CC(=O)N(c2ccccc2)c2cc(Cl)ccc21" ? Thanks!
OUTPUT: 17.5

---

Experiment: Pharmacokinetics of clobazam in plasma (LC-MS/MS)
Format: in vivo
Conditions: human, po, 20 mg, clobazam 20 mg oral, all volunteers (n = 16), mean (SD)
Recorded Endpoint: Tmax

INPUT: Could you please provide reported Tmax for "CN1C(=O)CC(=O)N(c2ccccc2)c2cc(Cl)ccc21" ? Thanks!
OUTPUT: 2.28 h
